assay-name: antimalarial activity against Dd2 strain (AID 2302);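 also: 0% = DMSO untreated growth and 100% = chloroquine plus artemisinin killed control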
condition-label: P. falciparum Dd2 in RBCs, LDH growth readout, 72 h; at 2 µM
Active and inactive are the calls of the source.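 The calls were made as follows: active = growth inhibition above 50% at the single 2 µM test dose, taken to imply half-maximal potency below 2 µM; inactive = the rest.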
Answer with one of the outcomes label 1 = active, label 0 = inactive

Fc1cc(Cl)ccc1Nc1ccnc2cc(-c3ccc(CN4CCOCC4)o3)ccc12	label 1
CCCCNC(=O)[C@@H](NC(=O)c1ccc(O)c(-c2ccc(Cl)c(Cl)c2)c1)C(C)C	label 1
COc1cc2nc(NCc3ccccc3)nc(NCc3ccccc3)c2cc1OC	label 1

Q: What classification did "CO/C(=C\C=C\c1cc2cc(Cl)c(Cl)cc2[nH]1)C(=O)NC1CCN(CCNc2ccccc2)CC1" end up with in this test?
Ans: label 1

Q: What classification did OC(COc1ccccc1-c1nc2ccccc2o1)CN1CCCN(CCc2ccccc2)CC1 (stereo not given) end up with in this test?
Ans: label 0

====

assay-name: antimalarial activity against Dd2 strain (AID 2302);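 also: 0% = DMSO untreated growth and 100% = chloroquine plus artemisinin killed control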
condition-label: P. falciparum Dd2 in RBCs, LDH growth readout, 72 h; at 2 µM
The source made the active and inactive calls.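 How the source made its calls: active means growth inhibition above 50% at the single 2 µM test dose, taken to imply half-maximal potency below 2 µM; inactive means the rest.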
Answer with one of the outcomes active, inactive

Cc1cc(Nc2ccccc2)nc(Nc2ccccc2)n1	active
COc1ccc(C2C(C(=O)Nc3cc(OC)c(OC)c(OC)c3)c3cc(OC)c(OC)cc3C(=O)N2C)cc1 (stereo not given)	active
COc1ccc(-c2nc(NC(=O)CS(=O)(=O)c3ccccc3)sc2C)cc1	active
N#Cc1ccc2c(c1)CCN(CCC1CCC(NC(=O)c3cc4cccc(Cl)c4[nH]3)CC1)CC2 (stereo not given)	active
Cc1ccc2[nH]c3c(NCCN(C)C)ncnc3c2c1	inactive
O=C(NCc1ccccc1)Nc1cccc(-c2cccc(-c3nc4ccc(C(F)(F)F)cc4[nH]3)c2)c1	inactive

Q: What classification did "CC[C@H](C)CNC(=O)c1ccnc(-c2ccc(CN3CCC(N4CCCC4)CC3)cc2)c1" end up with in this test?
Ans: active

Q: What classification did COc1ccc(C(C(=O)NC2CCN(C[C@H](O)c3ccnc4ccc(OC)cc34)CC2)N2CCN(c3ccc(F)cc3)CC2)cc1 (stereo not given in full) end up with in this test?
Ans: active

====

assay-name: human hepatoma cell viability loss – ATP luminescence, cytotoxicity control for P. falciparum antimalarial project, primary screen (AID 2303);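 also: 0% = DMSO wells and 100% = digitonin-killed cells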
condition-label: HepG2 viability, 24-48 h, at 10 µM, hits give high values
// assign 1.0 if inhibition falls strictly below 5%, else 0.0 (ties count as 0.0)

CCc1sc(-c2ccc(C(C)(C)C)cc2)nc1C(=O)NCCCN1CCCC1=O	1.0
CC1(C)N=C(N)N=C(N)N1OCCCSc1ccccc1	0.0
COc1ccc(CN(C)CCCOc2ccc(NC(=O)c3cccc4c(=O)c5cccc(C)c5[nH]c34)cc2)cc1OC	1.0
COc1ccc(Cl)cc1N1CCN(CCCNC(=O)c2ccc(-c3nc4cc(Cl)c(F)cc4[nH]3)c(F)c2)CC1	0.0
COc1ccc(CCNC(C)Cc2ccc(C(=O)Nc3ccc(CC(C)NCCc4cccc(Cl)c4)cc3)cc2)cc1 (centres undefined)	0.0

Q: Just wondering, is inhibition of "O=S(=O)(NCCN1CCCC1)c1ccc(-c2cccc(CNC3Cc4ccccc4C3)c2)cc1F" below 5%?
Ans: 0.0

Q: Just wondering, is inhibition of CC(Oc1ccc(Cl)cc1Cl)c1nc(-c2ccc(NC(=O)c3ccco3)cc2)no1 (centres undefined) below 5%?
Ans: 0.0
